- System: LAMA-84
- protocol-text: Cytotoxicity against human LAMA-84 cells after 72 hrs by MTT assay
- Type: functional, cell-based
- assay-conditions: LAMA-84, 72 h
measurement-type: pIC50
Please keep in mind that pIC50 is minus log10 of the molar concentration; only the number is needed.

Input line: Lab note: need pIC50 with LAMA-84 for entry "Cc1ccc(/N=C\c2ccco2)cc1" , please look it up.
Output line: 4.40

Input line: Lab note: need pIC50 with LAMA-84 for entry "Cc1ccc(/N=C\c2ccc(N(C)C)cc2)cc1" , please look it up.
Output line: 3.60

Input line: Lab note: need pIC50 with LAMA-84 for entry CCOP(=O)(OCC)C(Nc1ccc(C)cc1)c1ccc(N(C)C)cc1 (centres undefined) , please look it up.
Output line: 3.92
